Target: T1, Human IL-11 (human, UniProt P20809 22-199)
T1 construct: Recombinant human IL-11 (GenScript Cat. No. Z03108-1) or IL-11 secreted by human cells; the mature form is said to have 178 residues; also called recombinant human IL-11; endogenously produced IL-11
T1 sequence: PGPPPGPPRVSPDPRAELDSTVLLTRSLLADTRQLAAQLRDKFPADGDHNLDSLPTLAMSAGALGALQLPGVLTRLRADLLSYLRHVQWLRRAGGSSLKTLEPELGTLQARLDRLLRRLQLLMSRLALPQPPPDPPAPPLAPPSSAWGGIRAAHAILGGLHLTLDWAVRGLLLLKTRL
Experiment: SPR, Single Cycle Kinetics, BIAcore T200; human IL-11 immobilised on CM5 chip, antibody in IgG1 format as analyte, 1:1 model
koff values, listed per item
Give a bare numeral; the unit s⁻¹ is implied.

Completed entries (count: 2):
binder	measurement
01I (antibody, IgG1, V domains shown, C91I variant of the YU100-H01 VL) VH: QVQLVQSGGGVVQPGRSLRLSCAASGFTFSSYAMHWVRQAPGKGLEWVAVISYDGSNKYYADSVKGRFTISRDNSKNTLYLQMNSLRAEDTAVYYCARIMGYDYGDYDVVDYWGQGTLVTVSS VL: QSALTQPRSVSGSPGQSVTISCTGTSSDVGAYNYVSWYQQHPGKAPKLMIYDVSERPSGVPDRFSGSKSGNTASLTISGLQAEDEADYYCISYAGSYTWVFGGGTKLTVLG	0.00269
01S (antibody, IgG1, V domains shown, C91S variant of the YU100-H01 VL) VH: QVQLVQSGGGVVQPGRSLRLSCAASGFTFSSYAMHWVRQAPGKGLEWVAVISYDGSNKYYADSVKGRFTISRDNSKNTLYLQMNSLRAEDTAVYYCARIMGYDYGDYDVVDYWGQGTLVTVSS VL: QSALTQPRSVSGSPGQSVTISCTGTSSDVGAYNYVSWYQQHPGKAPKLMIYDVSERPSGVPDRFSGSKSGNTASLTISGLQAEDEADYYCSSYAGSYTWVFGGGTKLTVLG	0.000905

// next item, koff requested
// sample 01V (antibody, IgG1, V domains shown, C91V variant of the YU100-H01 VL) VH: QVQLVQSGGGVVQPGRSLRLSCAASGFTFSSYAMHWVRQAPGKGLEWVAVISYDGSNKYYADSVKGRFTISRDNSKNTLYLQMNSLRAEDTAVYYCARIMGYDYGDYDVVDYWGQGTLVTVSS VL: QSALTQPRSVSGSPGQSVTISCTGTSSDVGAYNYVSWYQQHPGKAPKLMIYDVSERPSGVPDRFSGSKSGNTASLTISGLQAEDEADYYCVSYAGSYTWVFGGGTKLTVLG , its koff was 0.000778
